- experimental_system: Peroxisome proliferator-activated receptor delta (Homo sapiens)
- Sequence (Q03181 whole entry): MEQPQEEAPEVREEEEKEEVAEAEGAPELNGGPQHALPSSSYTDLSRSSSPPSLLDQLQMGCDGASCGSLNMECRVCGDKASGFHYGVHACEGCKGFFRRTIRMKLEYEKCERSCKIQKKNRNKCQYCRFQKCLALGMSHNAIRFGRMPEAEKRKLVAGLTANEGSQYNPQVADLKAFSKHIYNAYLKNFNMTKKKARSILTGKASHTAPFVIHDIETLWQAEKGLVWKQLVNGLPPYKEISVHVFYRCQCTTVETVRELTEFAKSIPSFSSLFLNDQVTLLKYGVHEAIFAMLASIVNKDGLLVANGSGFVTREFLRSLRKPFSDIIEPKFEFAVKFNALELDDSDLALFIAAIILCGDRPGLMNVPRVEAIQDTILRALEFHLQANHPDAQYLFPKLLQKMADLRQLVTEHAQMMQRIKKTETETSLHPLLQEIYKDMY
- assay_overview: In vitro activation of human peroxisome proliferator activated receptor delta (PPAR delta)
Response field label takes satisfied when EC50 is strictly below 2000 nM and not satisfied in all other cases.

[[record]]
smiles = "CCO[C@@H](Cc1ccc(OCC=C(c2ccc(-c3ccccc3)cc2)c2ccc(-c3ccccc3)cc2)cc1)C(=O)O"
label_class = "satisfied"

[[record]]
smiles = "CCO[C@@H](Cc1ccc(OCC=C(c2ccc(Br)cc2)c2ccc(Br)cc2)cc1)C(=O)O"
label_class = "satisfied"

[[record]]
smiles = "CCO[C@@H](Cc1ccc(OC/C=C(/c2ccccc2)c2ccc(F)cc2)cc1)C(=O)O"
label_class = "not satisfied"

[[record]]
smiles = "CCO[C@@H](Cc1ccc(OC/C=C(/c2ccccc2)c2ccc(Br)cc2)cc1)C(=O)O"
label_class = "not satisfied"

[[record]]
smiles = "CCO[C@@H](Cc1ccc(OC/C=C(\\c2ccccc2)c2ccc(-c3ccccc3)cc2)cc1)C(=O)O"
label_class = "not satisfied"

[[record]]
smiles = "CCO[C@@H](Cc1ccc(OCC=C(c2ccc(-c3ccco3)cc2)c2ccc(-c3ccco3)cc2)cc1)C(=O)O"
label_class = "satisfied"

[[record]]
smiles = "CCO[C@@H](Cc1ccc(OC/C=C(\\c2ccccc2)c2ccc(-c3ccco3)cc2)cc1)C(=O)O"
label_class = "satisfied"

